Task for the reader: assign each of the following binders its reported glycan array binding signal (z-score).
- system-under-test: Fuc(a1-2)Gal(b1-3)GalNAc
- assay-details: glycan array binding signal (z-score within array); higher = stronger binding
- measurement-parameters: glycan notation: IUPAC condensed, linker removed
The sample as a whole holds a higher share of the strongest signals than the screen did.
Answers are plain numbers.

- binder: "RNase 1 (Bos taurus), P61823 (protein) MALKSLVLLSLLVLVLLLVRVQPSLGKETAAAKFERQHMDSSTSAASSSNYCNQMMKSRNLTKDRCKPVNTFVHESLADVQAVCSQKNVACKNGQTNCYQSYSTMSITDCRETGSSKYPNCAYKTTQANKHIIVACEGNPYVPVHFDASV"
  readout: "glycan array binding signal (z-score)"
  assay-value: -0.157

Now for the binder whose glycan array binding signal (z-score) we want.
Task item: Provide measured glycan array binding signal (z-score) value, entry: PpFlo3 (Pichia pastoris) (protein) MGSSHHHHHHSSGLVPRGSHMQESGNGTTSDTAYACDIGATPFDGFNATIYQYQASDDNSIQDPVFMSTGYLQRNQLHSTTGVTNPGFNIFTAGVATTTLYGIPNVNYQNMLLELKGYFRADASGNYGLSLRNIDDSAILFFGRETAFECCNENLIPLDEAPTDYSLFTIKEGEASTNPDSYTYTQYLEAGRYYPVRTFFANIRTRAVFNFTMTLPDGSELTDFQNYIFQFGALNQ
Reply: -0.256
